Source: a melting point compilation (Tetko et al.; mined from patent text by program, amines drawn as free bases though some values may be those of a salt)

melting point listing for selected compounds.

Nc1ccc(-n2ccnc2S(=O)Cc2ccccc2N2CCOCC2)nc1 (stereo not given)	190 to 192 °C
COc1ccc(N2C(=O)CCNc3ccc(Cl)cc32)cc1	198 to 199 °C

Q: # get_value(readout='melting point', item= O=S(=O)(Nc1onc(C(F)(F)F)c1Br)c1ccccc1 )
A: 104 to 105 °C

Q: And OC(c1ccccc1)(c1ccc(Cl)cc1)c1nccn1Cc1ccccc1 (stereo not given) ?
A: 174 to 175 °C

Q: And COc1cccc2c1nc(C(F)F)n2-c1nc(NC2CCN(C(=O)OC(C)(C)C)CC2)c(N)c(N2CCOCC2)n1 ?
A: 223 to 225 °C
